Listed compounds paired with reported pIC50
# System: A549 cell line
# measurementNotes: Anti-proliferation assay in A549 cell line (CellTiter-Glo)
# Type: cell-based
# conditionParameters: Homo sapiens; A549 cells, 48 h, CTG assay
pIC50: −log10 of the molar value.

>  <compound>
Cc1ccc2c(c1CCC(=O)NCCCCCC(=O)Nc1ccccc1N)C(=O)C(=O)C(C(C)C)=C2 [Compound 33d]

>  <systemName>
A549 cell line

>  <censoringQualifier>
<

>  <pIC50>
4.70

$$$$
>  <compound>
Cc1ccc2c(c1CCC(=O)Nc1ccc(F)cc1N)C(=O)C(=O)C(C(C)C)=C2 [Compound 27c]

>  <systemName>
A549 cell line

>  <censoringQualifier>
<

>  <pIC50>
4.70

$$$$
>  <compound>
Cc1ccc2c(c1CCC(=O)Nc1ccccc1N)C(=O)C(=O)C(C(C)C)=C2 [Compound 27a]

>  <systemName>
A549 cell line

>  <censoringQualifier>
=

>  <pIC50>
4.75

$$$$
>  <compound>
Cc1ccc2c(c1CCC(=O)NCCCC(=O)Nc1ccccc1N)C(=O)C(=O)C(C(C)C)=C2 [Compound 33b]

>  <systemName>
A549 cell line

>  <censoringQualifier>
=

>  <pIC50>
4.72

$$$$
>  <compound>
Cc1ccc2c(c1CCC(=O)O)C(=O)C(=O)C(C(C)C)=C2 [Compound 18]

>  <systemName>
A549 cell line

>  <censoringQualifier>
<

>  <pIC50>
4.70

$$$$
>  <compound>
Cc1ccc2c(c1CCC(N)=O)C(=O)C(=O)C(C(C)C)=C2 [Compound 19]

>  <systemName>
A549 cell line

>  <censoringQualifier>
=

>  <pIC50>
4.84

$$$$
>  <compound>
Cc1ccc2c(c1CCC(=O)NCc1c[nH]c3ccccc13)C(=O)C(=O)C(C(C)C)=C2 [Compound 21f]

>  <systemName>
A549 cell line

>  <censoringQualifier>
<

>  <pIC50>
4.70

$$$$
>  <compound>
CC(C)=CCCc1c(C)ccc2c1C(=O)C(=O)C(C(C)C)=C2 [Compound 1, saprorthoquinone]

>  <systemName>
A549 cell line

>  <censoringQualifier>
=

>  <pIC50>
5.00

$$$$

###

Listed molecules paired with reported inhibition at 10 µM
# systemName: IDO1 (Homo sapiens)
# Construct: No. 20160706
# Sequence (P14902 whole entry): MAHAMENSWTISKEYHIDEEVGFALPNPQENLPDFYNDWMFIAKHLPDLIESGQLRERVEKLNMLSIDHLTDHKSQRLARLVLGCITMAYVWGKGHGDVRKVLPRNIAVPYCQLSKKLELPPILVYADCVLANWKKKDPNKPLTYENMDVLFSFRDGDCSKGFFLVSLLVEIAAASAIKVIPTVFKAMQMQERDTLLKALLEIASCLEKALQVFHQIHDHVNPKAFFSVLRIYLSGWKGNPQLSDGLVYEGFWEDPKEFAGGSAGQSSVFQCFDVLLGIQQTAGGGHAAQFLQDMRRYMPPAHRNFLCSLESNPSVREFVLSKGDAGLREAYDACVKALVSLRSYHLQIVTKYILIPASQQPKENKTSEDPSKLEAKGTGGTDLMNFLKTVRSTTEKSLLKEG
# measurementNotes: IDO1 enzymatic assay
# Type: biochemical
# conditionParameters: 10 μM; Table 1 natural products; read-out: IDO1 Inhibition @ 10 μM (%)
valueKind: inhibition at 10 µM (%)

>  <molecule>
Cc1coc2c1C(=O)C(=O)c1c-2ccc2c(C)cccc12

>  <valueKind>
inhibition at 10 µM

>  <measValue>
65

$$$$
>  <molecule>
CC1COC2=C1C(=O)C(=O)c1c2ccc2c1CCCC2(C)C (stereo not shown)

>  <valueKind>
inhibition at 10 µM

>  <measValue>
66

$$$$
>  <molecule>
CC(C)C1=C(O)C(=O)C2=C(CC[C@H]3C(C)(C)CCC[C@]23C)C1=O

>  <valueKind>
inhibition at 10 µM

>  <measValue>
2

$$$$
>  <molecule>
CC(C)C1=CC(=O)C([C@@]2(C)CCCC(C)(C)[C@@H]2CC=O)=CC1=O

>  <valueKind>
inhibition at 10 µM

>  <measValue>
6

$$$$

###

Listed molecules paired with reported inhibition at 10 µM
# systemName: IDO1 (Homo sapiens)
# Construct: No. 20160706
# measurementNotes: IDO1 enzymatic assay
# Type: biochemical
# conditionParameters: 10 μM; Tables 2 and 3; read-out: IDO1 % Inhibition at 10 μM (converted)

>  <molecule>
Cc1ccc2c(c1CCC(=O)NCCCC(=O)Nc1ccccc1N)C(=O)C(=O)C(C(C)C)=C2 [Compound 33b]

>  <units>
%

>  <inhibition at 10 µM>
80

$$$$
>  <molecule>
Cc1ccc2c(c1CCC(=O)Nc1ccc(F)c(Br)c1)C(=O)C(=O)C(C(C)C)=C2 [Compound 21d]

>  <units>
%

>  <inhibition at 10 µM>
65

$$$$
>  <molecule>
Cc1ccc2c(c1CCC(=O)Nc1ccc(F)cc1N)C(=O)C(=O)C(C(C)C)=C2 [Compound 27c]

>  <units>
%

>  <inhibition at 10 µM>
56

$$$$
>  <molecule>
Cc1ccc2c(c1CCC(=O)O)C(=O)C(=O)C(C(C)C)=C2

>  <units>
%

>  <inhibition at 10 µM>
86

$$$$
>  <molecule>
Cc1ccc2c(c1CCCOS(N)(=O)=O)C(=O)C(=O)C(C(C)C)=C2 [Compound 24c]

>  <units>
%

>  <inhibition at 10 µM>
86

$$$$
>  <molecule>
COc1ccc(NC(=O)CCc2c(C)ccc3c2C(=O)C(=O)C(C(C)C)=C3)cc1 [Compound 21e]

>  <units>
%

>  <inhibition at 10 µM>
66

$$$$
>  <molecule>
Cc1ccc2c(c1CCC(=O)NCc1cn(C)c3ccccc13)C(=O)C(=O)C(C(C)C)=C2 [Compound 21g]

>  <units>
%

>  <inhibition at 10 µM>
74

$$$$
>  <molecule>
CCS(=O)(=O)OCCCc1c(C)ccc2c1C(=O)C(=O)C(C(C)C)=C2 [Compound 24b]

>  <units>
%

>  <inhibition at 10 µM>
87

$$$$

Sourced from paper PMC7582476
